Assay: HPLC logP determination
Type: physicochemical
Settings: stated in the preparation examples
Below: a set of entries, each annotated with reported chromatographic logP.

- Nc1ccc(Oc2cc(Cl)ncn2)cc1 [XI-1, 4-(4-aminophenoxy)-6-chloro-pyrimidine]: 0.65

Inquiry: Input O=CNc1cccc(C(=O)Nc2ccc(Oc3ncnc(Oc4ccccc4)c3F)cc2)c1O [Example 1] , output reported chromatographic logP.
Reply text: 3.31

Inquiry: Return chromatographic logP (reported value) for this molecule: O=C(Nc1ccc(Oc2ncnc(Oc3ccccc3)c2F)cc1)c1cccc([N+](=O)[O-])c1OCc1ccccc1 [Example V-1]
Reply text: 4.56

Inquiry: Look up chromatographic logP of Nc1ccc(Oc2cc(Oc3ccccc3Cl)ncn2)cc1 [VII-a-1] and report it.
Reply text: 1.96

Values from patent US20020006958A1
